B1: PPFIA4 (parent)
chain: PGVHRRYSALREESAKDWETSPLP

# Variants of: B1
# Assay overview: protein stability index of a GFP-peptide fusion (GPS, HEK-293T) (PSI 1-6); higher = more stable;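 note: lentivirally expressed fusions sorted by FACS into six bins by GFP to DsRed ratio, PSI derived from sequencing read proportions per bin multiplied by bin number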
# Run parameters: c terminus: a fixed tail appended
Catalogue of protein stability index values

{"Sequence entry": "PGVHRRYSALRENSAKDWETSPLP [E13N]", "protein stability index": 3.42}
{"Sequence entry": "PGVHRRYSALREESAKDWENSPLP [T20N]", "protein stability index": 4.55}
{"Sequence entry": "EGVHRRYSALREESAKDWETSPLP [P1E]", "protein stability index": 3.49}
{"Sequence entry": "PGVHRRYSANREESAKDWETSPLP [L10N]", "protein stability index": 4.79}
{"Sequence entry": "PGVHRRYSALREESAKDPETSPLP [W18P]", "protein stability index": 5.21}
{"Sequence entry": "PGVHRRYSALREESAKDWETAPLP [S21A]", "protein stability index": 4.93}
{"Sequence entry": "PGVHSRYSALREESAKDWETSPLP [R5S]", "protein stability index": 4.58}
{"Sequence entry": "PGVHFRYSALREESAKDWETSPLP [R5F]", "protein stability index": 3.99}
{"Sequence entry": "PGVHRRWSALREESAKDWETSPLP [Y7W]", "protein stability index": 4.2}
{"Sequence entry": "PGVHRRYFALREESAKDWETSPLP [S8F]", "protein stability index": 3.08}
{"Sequence entry": "PGVHRRYSALREESAKDWQTSPLP [E19Q]", "protein stability index": 4.18}
{"Sequence entry": "PGVHRRYSPLREESAKDWETSPLP [A9P]", "protein stability index": 2.93}
{"Sequence entry": "PGVHRRYSALREESRKDWETSPLP [A15R]", "protein stability index": 4}
{"Sequence entry": "PGVHRRYSALREPSAKDWETSPLP [E13P]", "protein stability index": 3.11}
{"Sequence entry": "PNVHRRYSALREESAKDWETSPLP [G2N]", "protein stability index": 4.5}
{"Sequence entry": "PGVHRRYSALREESAKDWETSILP [P22I]", "protein stability index": 3.48}
{"Sequence entry": "PGLHRRYSALREESAKDWETSPLP [V3L]", "protein stability index": 3.66}
{"Sequence entry": "PGVHRRYSALREESGKDWETSPLP [A15G]", "protein stability index": 4.07}
{"Sequence entry": "PGVHRRYSALREESAKDWYTSPLP [E19Y]", "protein stability index": 2.37}
{"Sequence entry": "PGGHRRYSALREESAKDWETSPLP [V3G]", "protein stability index": 4.84}
{"Sequence entry": "PGVHRRYSALREESAKDWEWSPLP [T20W]", "protein stability index": 2.3}
{"Sequence entry": "PGVHRRYSALREEFAKDWETSPLP [S14F]", "protein stability index": 3.63}
